assay: Protein binding in CSF of Sprague-Dawley rat at 2 uM by equilibrium dialysis
Type: ADME, tissue-based, Cerebrospinal fluid
settings: read-out: PB (converted)
measurementKind: fraction unbound at 2 µM

1. O=S(=O)(c1ccc(F)cc1)c1cc(F)c(O)c2ncccc12    0.47
2. O=S(=O)(c1cc(F)c(O)c2ncccc12)C1CCCC1    0.43
3. O=S(=O)(c1cc(F)c(O)c2ncccc12)N1CCCC1    0.49

----------
assay: Drug level in CSF of Sprague-Dawley rat at 10 mg/kg, po after 4 hrs by ES-UPLC analysis
Type: ADME, organism-based, Cerebrospinal fluid
settings: read-out: Drug uptake
Listed compounds paired with reported concentration at 4 h
measurementKind: concentration at 4 h (nM)

1) O=S(=O)(c1cc(Cl)c(O)c2ncccc12)C1CCCC1    358
2) O=S(=O)(c1cc(F)c(O)c2ncccc12)N1CCCC1    157
3) O=S(=O)(c1ccc(F)cc1)c1cc(F)c(O)c2ncccc12    127
4) O=S(=O)(c1cc(F)c(O)c2ncccc12)C1CCCC1    321

----------
This section presents molecules with their documented Vdss values.
Test system: Rattus norvegicus
assay: Volume of distribution at steady state in rat at 1 mg/kg, iv or 3/10 mg/kg, po
Format: ADME, organism-based
settings: in vivo
measurementKind: Vdss (L/kg)

1. O=S(=O)(c1cc(Cl)c(O)c2ncccc12)C1CCCC1    0.3
2. O=S(=O)(c1ccc(F)cc1)c1cc(F)c(O)c2ncccc12    3.5
3. Cc1ccc(S(=O)(=O)c2cc(Cl)c(O)c3ncccc23)cc1    0.67
4. O=S(=O)(c1ccc(C(F)(F)F)cc1)c1cc(F)c(O)c2ncccc12    3.8
5. O=S(=O)(c1ccc(F)cc1)c1cc(Cl)c(O)c2ncccc12    0.23
6. O=S(=O)(c1cc(F)c(O)c2ncccc12)C1CCCC1    0.41
7. O=S(=O)(c1cc(F)c(O)c2ncccc12)N1CCCC1    2.2
8. Cc1ccc(S(=O)(=O)c2cc(F)c(O)c3ncccc23)cc1    1.2
9. O=S(=O)(c1cc(Cl)c(O)c2ncccc12)N1CCCC1    0.8
10. O=S(=O)(c1ccc(O)c2ncccc12)C1CCCC1    1.8

----------
assay: Efflux ratio of permeability in MDCK cells
Assay type: ADME, cell-based, Canis lupus familiaris
settings: dog
Please enter 1.0 where efflux ratio is greater than or equal to 0.7, and 0.0 where it is lower.

1. Cc1ccc(S(=O)(=O)c2cc(Cl)c(O)c3ncccc23)cc1    1.0
2. O=S(=O)(c1cc(Cl)c(O)c2ncccc12)N1CCCC1    0.0
3. O=S(=O)(c1cc(F)c(O)c2ncccc12)N1CCCC1    1.0
4. O=S(=O)(c1ccc(C(F)(F)F)cc1)c1cc(F)c(O)c2ncccc12    1.0
5. O=S(=O)(c1ccc(F)cc1)c1cc(Cl)c(O)c2ncccc12    1.0
6. O=S(=O)(c1cc(F)c(O)c2ncccc12)C1CCCC1    0.0

----------
assay: Plasma concentration C57BL/6J mouse at 10 mg/kg, ip measured at 1 hr post dose
Assay type: ADME, organism-based
Returns 1.0 if the recorded concentration at 1 h is greater than or equal to 2000 ng/mL, and 0.0 otherwise.

1. O=S(=O)(c1ccc(O)c2ncccc12)N1CCCC1Cc1ccccc1 (configuration not stated)    0.0
2. Cc1cc(S(=O)(=O)N2CCCC2)c2cccnc2c1O    0.0
3. Cc1ccc(S(=O)(=O)c2cc(Cl)c(O)c3ncccc23)cc1    1.0
4. O=S(=O)(c1ccc(C(F)(F)F)cc1)c1cc(F)c(O)c2ncccc12    1.0
5. Cc1ccc(S(=O)(=O)c2cc(F)c(O)c3ncccc23)cc1    0.0
6. CCS(=O)(=O)c1ccc(O)c2ncccc12    0.0
7. O=S(=O)(c1ccc(O)c2ncccc12)N1CCCC1    0.0
8. O=S(=O)(c1cc(F)c(O)c2ncccc12)C1CCCC1    1.0
9. O=S(=O)(c1ccc(F)cc1)c1cc(F)c(O)c2ncccc12    1.0
10. O=S(=O)(c1cc(F)c(O)c2ncccc12)N1CCCC1    0.0
11. O=S(=O)(c1ccc(O)c2ncccc12)C1CCCC1    0.0
12. O=S(=O)(c1cc(Cl)c(O)c2ncccc12)C1CCCC1    1.0

----------
assay: Plasma concentration C57BL/6J mouse at 10 mg/kg, ip measured at 1 hr post dose
Type: ADME, organism-based
Here the recorded concentration at 1 h is given for each entry.
measurementKind: concentration at 1 h (ng/mL)

1) O=S(=O)(c1ccc(C(F)(F)F)cc1)c1ccc(O)c2ncccc12    3540
2) O=S(=O)(c1cc(Cl)c(O)c2ncccc12)N1CCCC1    16200
3) O=S(=O)(c1ccc(F)cc1)c1cc(Cl)c(O)c2ncccc12    16600

----------
// pIC50 lookup, one value per entry
targetOrTestSystem: Catechol O-methyltransferase (Homo sapiens)
Sequence (P21964 whole entry): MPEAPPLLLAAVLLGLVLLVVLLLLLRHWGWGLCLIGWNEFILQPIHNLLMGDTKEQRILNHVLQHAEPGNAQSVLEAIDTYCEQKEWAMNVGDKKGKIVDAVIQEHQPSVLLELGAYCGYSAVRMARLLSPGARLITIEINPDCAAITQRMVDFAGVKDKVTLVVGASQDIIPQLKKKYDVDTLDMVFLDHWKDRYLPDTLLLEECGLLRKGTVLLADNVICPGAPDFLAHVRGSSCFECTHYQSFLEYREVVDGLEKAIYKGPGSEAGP
assay: Inhibition of c-terminal hexa-His tagged human S-COMT expressed in HEK293-6E cell membrane homogenate using 7,8-dihydroxy-4-methylcoumarin as substrate after 1 hr in presence of SAM by MTase glo methyltransferase assay
pIC50: −log10 of the molar value.
measurementKind: pIC50

1. CCS(=O)(=O)c1ccc(O)c2ncccc12    5.80
2. Cc1ccc(S(=O)(=O)c2ccc(O)c3ncccc23)cc1    6.30
3. O=S(=O)(c1ccc(O)c2ncccc12)N1CCCC1Cc1ccccc1 (centres undefined)    5.70
4. O=S(=O)(c1ccc(O)c2ncccc12)N1CCCC1    5.70
5. O=S(=O)(c1ccc(O)c2ncccc12)C1CCCC1    6.30
6. Cc1ccc(S(=O)(=O)c2cc(F)c(O)c3ncccc23)cc1    6.30
7. O=S(=O)(c1cc(F)c(O)c2ncccc12)C1CCCC1    5.60
8. Cc1cc(S(=O)(=O)N2CCCC2)c2cccnc2c1O    5.50
9. O=S(=O)(c1ccc(F)cc1)c1cc(F)c(O)c2ncccc12    5.80
10. O=S(=O)(c1cc(Cl)c(O)c2ncccc12)N1CCCC1    5.50
11. O=S(=O)(c1cc(F)c(O)c2ncccc12)N1CCCC1    5.80
12. O=S(=O)(c1ccc(C(F)(F)F)cc1)c1ccc(O)c2ncccc12    5.90
13. O=S(=O)(c1cc(Cl)c(O)c2ncccc12)C1CCCC1    5.10
14. O=S(=O)(c1ccc(C(F)(F)F)cc1)c1cc(F)c(O)c2ncccc12    5.20

----------
targetOrTestSystem: Catechol O-methyltransferase (Homo sapiens)
assay: Inhibition of c-terminal hexa-His tagged human MB-COMT expressed in HEK293 cell membrane homogenate using norepinephrine as substrate after 1 hr in presence of SAM by MTase glo methyltransferase assay
We label by threshold. Values of IC50 strictly beneath 50 nM are yes. Values of 50 nM and up are no.

1) Cc1ccc(S(=O)(=O)c2ccc(O)c3ncccc23)cc1    yes
2) Cc1cc(S(=O)(=O)N2CCCC2)c2cccnc2c1O    yes
3) Cc1ccc(-c2ccc(O)c3ncccc23)cc1    no
4) O=S(=O)(c1cc(F)c(O)c2ncccc12)C1CCCC1    yes
5) O=S(=O)(c1ccc(O)c2ncccc12)C1CCCC1    yes
6) O=C(c1ccc(O)c2ncccc12)N1CCCC1    no
7) Cc1ccc(S(=O)(=O)c2cc(C(F)(F)F)c(O)c3ncccc23)cc1    no
8) O=S(=O)(c1ccc(C(F)(F)F)cc1)c1ccc(O)c2ncccc12    no
9) Oc1cccc2cccnc12    no
10) Cc1ccc(S(=O)(=O)c2cc(F)c(O)c3ncccc23)cc1    yes
11) O=S(=O)(c1cc(C(F)(F)F)c(O)c2ncccc12)C1CCCC1    no
12) Cc1ccc(S(=O)(=O)c2cc(Br)c(O)c3ncccc23)cc1    no
13) O=S(=O)(c1cc(F)c(O)c2ncccc12)N1CCCC1    yes

----------
assay: Clearance in rat hepatocytes assessed as per million cells
Type: ADME, cell-based, Hepatocyte
settings: read-out: CLH
Entries are sorted into classes by hepatocyte CLint as follows: low range = under 20 µL/min/1e6 cells, mid range = from 20 µL/min/1e6 cells up to 100 µL/min/1e6 cells, high range = 100 µL/min/1e6 cells and over

1. O=S(=O)(c1cc(Cl)c(O)c2ncccc12)C1CCCC1    low range
2. O=S(=O)(c1ccc(O)c2ncccc12)N1CCCC1Cc1ccccc1 (configuration not stated)    high range
3. O=S(=O)(c1cc(F)c(O)c2ncccc12)N1CCCC1    mid range
4. O=S(=O)(c1cc(Cl)c(O)c2ncccc12)N1CCCC1    low range
5. O=S(=O)(c1ccc(O)c2ncccc12)N1CCC(c2ccc(F)cc2)C1 (configuration not stated)    high range
6. Cc1ccc(S(=O)(=O)c2cc(F)c(O)c3ncccc23)cc1    mid range
7. O=S(=O)(c1ccc(F)cc1)c1cc(F)c(O)c2ncccc12    low range
8. CCS(=O)(=O)c1ccc(O)c2ncccc12    mid range
9. O=S(=O)(c1ccc(C(F)(F)F)cc1)c1ccc(O)c2ncccc12    mid range
10. Cc1ccc(S(=O)(=O)c2cc(Cl)c(O)c3ncccc23)cc1    mid range
11. O=S(=O)(c1ccc(O)c2ncccc12)N1CCCC1    high range
